System: hDMFa myofibroblast cells
Where a name gives a salt, the structure may show the parent alone.
METRIC_NAME: Compound Myofibroblast Cytotoxicity Activity

Guide cases for Compound Myofibroblast Cytotoxicity Activity, answers given:
COMPOUND: Cc1cccc(O)c1
ENDPOINT_VALUE: ++
//
COMPOUND: C=C1C(=O)O[C@@H]2/C=C(\C)CC/C=C(\C)CC[C@@H]12 [Cmpd 292, Costunolide]
ENDPOINT_VALUE: +++
//
COMPOUND: N[C@@H](Cc1cc(I)c(Oc2ccc(O)c(I)c2)c(I)c1)C(=O)O
ENDPOINT_VALUE: ++
//
COMPOUND: CC(COc1ccccc1)NC(C)C(O)c1ccc(O)cc1 (centres unmarked) [Cmpd 542, Isoxsuprine (hydrochloride)]
ENDPOINT_VALUE: ++

Could you now consider this next compound?
What value of Compound Myofibroblast Cytotoxicity Activity has been reported for the following compound? CCOC(=O)C1=C(C)NC(C)=C(C(=O)OC)C1c1cccc(Cl)c1Cl (centres unmarked)
+++

###

Structures can show the parent of a compound that is named as a salt.
hDMFa myofibroblast cells: recorded Compound Myofibroblast Cytotoxicity Activity for assorted molecules
METRIC_NAME: Compound Myofibroblast Cytotoxicity Activity

MOLECULE: CC(CN(C)C)CN1c2ccccc2CCc2ccccc21.O=C(O)/C=C\C(=O)O (stereo not shown) [Cmpd 975, Trimipramine (maleate)]
SYSTEM_UNDER_TEST: hDMFa myofibroblast cells
ENDPOINT_VALUE: ++

MOLECULE: CC[C@]1(O)C[C@@H]2CN(CCc3c([nH]c4ccccc34)[C@@](C(=O)OC)(c3cc4c(cc3OC)N(C)[C@H]3[C@@](O)(C(=O)OC)[C@H](OC(C)=O)[C@]5(CC)C=CCN6CC[C@]43[C@@H]65)C2)C1 [Cmpd 1002, Vinblastine sulfate]
SYSTEM_UNDER_TEST: hDMFa myofibroblast cells
ENDPOINT_VALUE: ++

MOLECULE: CCOc1nc2cccc(C(=O)OC(C)OC(=O)OC3CCCCC3)c2n1Cc1ccc(-c2ccccc2-c2nnn[nH]2)cc1 (stereo not shown) [Cmpd 211, Candesartan Cilexetil]
SYSTEM_UNDER_TEST: hDMFa myofibroblast cells
ENDPOINT_VALUE: +++

MOLECULE: CCCCCCCC(=O)O [Cmpd 729, Octanoic acid]
SYSTEM_UNDER_TEST: hDMFa myofibroblast cells
ENDPOINT_VALUE: ++

###

Tested on: hDMFa myofibroblast cells
Where a name gives a salt, the structure may show the parent alone.
METRIC_NAME: Compound Myofibroblast Cytotoxicity Activity

COMPOUND: CCCCCCCCCCCCC/C=C/[C@@H](O)[C@@H](N)CO [Cmpd 341, D-erythro-Sphingosine (synthetic)]
ENDPOINT_VALUE: ++
--
COMPOUND: O=C(O)CCC(=O)O
ENDPOINT_VALUE: ++
--
COMPOUND: C1CCc2nnnn2CC1
ENDPOINT_VALUE: ++++
--
COMPOUND: C=CCNC1=C2C[C@@H](C)C[C@H](OC)[C@H](O)[C@@H](C)/C=C(\C)[C@H](OC(N)=O)[C@@H](OC)/C=C\C=C(/C)C(=O)NC(=CC1=O)C2=O
ENDPOINT_VALUE: +++
--
COMPOUND: O=C1CN(/N=C/c2ccc(-c3ccc([N+](=O)[O-])cc3)o2)C(O)=N1 [Cmpd 320, Dantrolene, sodium salt]
ENDPOINT_VALUE: ++++
--
COMPOUND: C[C@H](CCC(=O)NCCS(=O)(=O)[O-])[C@H]1CC[C@H]2[C@@H]3[C@@H](O)C[C@@H]4C[C@H](O)CC[C@]4(C)[C@H]3CC[C@]12C.[Na+] [Cmpd 877, Sodium Tauroursodeoxycholate (TUDC)]
ENDPOINT_VALUE: ++
--
COMPOUND: CN(C)CCOc1ccc(/C(=C(/CCCl)c2ccccc2)c2ccccc2)cc1 [Cmpd 959, Toremifene Citrate]
ENDPOINT_VALUE: +++
--
COMPOUND: CC(=O)[C@H]1CC[C@H]2[C@@H]3CCC4=CC(=O)CC[C@]4(C)[C@H]3CC[C@]12C
ENDPOINT_VALUE: +++

Here is the next item to consider.
Request - read-out Compound Myofibroblast Cytotoxicity Activity | tested on hDMFa myofibroblast cells | compound CN(C/C=C/C#CC(C)(C)C)Cc1cccc2ccccc12 [Cmpd 926, Terbinafine]
++

###

Tested on: hDMFa myofibroblast cells
METRIC_NAME: Compound Myofibroblast Cytotoxicity Activity

Solved cases (6 shown):
COMPOUND: C#CCN[C@@H]1CCc2ccccc21
ENDPOINT_VALUE: ++

COMPOUND: CC(=O)Nc1ccccc1 [Cmpd 79, Acetanilide]
ENDPOINT_VALUE: ++++

COMPOUND: CO/N=C(\C(=O)N[C@@H]1C(=O)N2C(C(=O)[O-])=C(CSC(=O)c3ccco3)CS[C@H]12)c1csc(N)n1.[Na+] [Cmpd 237, Ceftiofur sodium]
ENDPOINT_VALUE: ++

COMPOUND: CN(Cc1cnc2nc(N)nc(N)c2n1)c1ccc(C(=O)N[C@@H](CCC(=O)[O-])C(=O)[O-])cc1.[Na+].[Na+] [Cmpd 658, Methotrexate disodium]
ENDPOINT_VALUE: ++

COMPOUND: CCCCCCCCCCCC(=O)O
ENDPOINT_VALUE: ++

COMPOUND: CC(C)(CO)C(O)C(=O)NCCCO (racemic)
ENDPOINT_VALUE: +++

State the recorded Compound Myofibroblast Cytotoxicity Activity for this entry: COc1cc2c(Oc3ccc4[nH]c(C)cc4c3F)ncnc2cc1OCCCN1CCCC1
++++

So what's the measured Compound Myofibroblast Cytotoxicity Activity for this one? CCN(C(=O)c1c(O)c2c(Cl)cccc2n(C)c1=O)c1ccccc1
++++

###

System: hDMFa myofibroblast cells
METRIC_NAME: Compound Myofibroblast Cytotoxicity Activity

MOLECULE: COc1cc(NS(C)(=O)=O)ccc1Nc1c2ccccc2nc2ccccc12.Cl [Cmpd 116, Amsacrine hydrochloride]
SYSTEM_UNDER_TEST: hDMFa myofibroblast cells
ENDPOINT_VALUE: +++
--
MOLECULE: COC(=O)C1=C(C)NC(C)=C(C(=O)OCC(C)C)C1c1ccccc1[N+](=O)[O-] (stereo not shown)
SYSTEM_UNDER_TEST: hDMFa myofibroblast cells
ENDPOINT_VALUE: +++
--
MOLECULE: COS(=O)(=O)[O-].C[n+]1c2ccccc2nc2ccccc21 [Cmpd 775, Phenazine methosulfate]
SYSTEM_UNDER_TEST: hDMFa myofibroblast cells
ENDPOINT_VALUE: +++++
--
MOLECULE: CC(C)c1nc(N(C)S(C)(=O)=O)nc(-c2ccc(F)cc2)c1/C=C/[C@@H](O)C[C@@H](O)CC(=O)[O-].CC(C)c1nc(N(C)S(C)(=O)=O)nc(-c2ccc(F)cc2)c1/C=C/[C@@H](O)C[C@@H](O)CC(=O)[O-].[Ca+2]
SYSTEM_UNDER_TEST: hDMFa myofibroblast cells
ENDPOINT_VALUE: +++

###

Measured Compound Myofibroblast Cytotoxicity Activity (hDMFa myofibroblast cells)
Where a name gives a salt, the structure may show the parent alone.

Consider the reported Compound Myofibroblast Cytotoxicity Activity for these compounds:
COMPOUND: C[N+](C)(C)CCO.O=C([O-])C(O)C(O)C(=O)O (stereo not shown) [Cmpd 257, Choline bitartrate]
ENDPOINT_VALUE: +++

COMPOUND: CCCN1CCCC[C@H]1C(=O)Nc1c(C)cccc1C.CS(=O)(=O)O [Cmpd 840, Ropivacaine Mesilate]
ENDPOINT_VALUE: ++

COMPOUND: CN(C)c1ccc(C(=C2C=CC(=[N+](C)C)C=C2)c2ccc(N(C)C)cc2)cc1
ENDPOINT_VALUE: +++

COMPOUND: O=C(O)c1ccc(O)c(O)c1
ENDPOINT_VALUE: ++

COMPOUND: COC(=O)c1ccc(O)cc1
ENDPOINT_VALUE: ++

Param readout = Compound Myofibroblast Cytotoxicity Activity; param system = hDMFa myofibroblast cells; param query = C/C=C1\NC(=O)[C@H]2CSSCC/C=C/[C@H](CC(=O)N[C@H](C(C)C)C(=O)N2)OC(=O)[C@H](C(C)C)NC1=O [Cmpd 839, Romidepsin (FK228,depsipeptide)] ; response: value
++

Lab note: need Compound Myofibroblast Cytotoxicity Activity for CO[C@@H]1[C@H](N(C)C(=O)c2ccccc2)C[C@H]2O[C@]1(C)n1c3ccccc3c3c4c(c5c6ccccc6n2c5c31)C(=O)NC4 on hDMFa myofibroblast cells, anyone have it?
++

Missing value: Compound Myofibroblast Cytotoxicity Activity, hDMFa myofibroblast cells, entry CC(=O)[C@]1(O)Cc2c(O)c3c(c(O)c2[C@@H](O[C@H]2C[C@H](N)[C@H](O)[C@H](C)O2)C1)C(=O)c1ccccc1C3=O [Cmpd 515, Idarubicin HCl] . Fill in?
+++++

Which measured Compound Myofibroblast Cytotoxicity Activity belongs to CC[C@H](C)[C@H](N)C(=O)O , tested on hDMFa myofibroblast cells?
+

Please tell me: Compound Myofibroblast Cytotoxicity Activity of CCCCCCCCCCCCCCCC(=O)OC(CC(=O)O)C[N+](C)(C)C.[Cl-] (racemic) [Cmpd 17, (±)-Palmitoylcarnitine chloride] , system hDMFa myofibroblast cells?
++
